EXPERIMENTAL_TARGET: MERS-S on pseudotyped VSV particles (MERS-S carrying a 16-a.a. cytoplasmic tail truncation) (MERS-CoV, UniProt K9N5Q8 18-1337)
MEASUREMENT_PROTOCOL: cell-based or functional assay
MEASUREMENT_NAME: IC50, neutralization of MERS-S pseudovirus infectivity (H2L2)

Solved entries:
query: Returns the measured IC50, neutralization of MERS-S pseudovirus infectivity (H2L2) for the input binder. Input: 4.6e10 (antibody, V domains shown) VH: QVQLVESGGGVVQPGRSLRLSCTASGFTFTYYGLHWVRQAPGKGLEWVAVIWYDGSNQYYADSVQGRFTISRDNSKNTLYLQMNSLRAEDTAVYYCAREGLGAVAGYYFDYWGQGTLVTVSA VL: DIQMTQSPSSLSASVRDRVTITCRASQIISNYLNWYQQKPGKAPKLLIYAASSLQSGVPSRFSGSGSGTDFTLTISSLQPEDFATYFCQQSYSTPFAFGPGTKVDIKR
result: ~0.0313 µg/mL

query: So what's the measured IC50, neutralization of MERS-S pseudovirus infectivity (H2L2) for this one? 1.8e5 (antibody, V domains shown) VH: QVQLQESGPGLVKPSGTLSLTCAVSGGSISSNRWWTWVRRSPGKGLEWIGEIYHSGSTNYNPSLKSRVTISVDRSKNQFSLKLSSVTAADTAVYYCASLTLIWFGEKAFDIWGQGTMVTVSS VL: EIVMTQSPATLSVSPGERATLSCGASPSVSTNLAWYQQRPGQAPRLLIYGISTRAAGIPARFSGTGSGTEFTLTISSLQSEDFALYYCQQYNNWPYTFGQGTKLEIKR
result: ~0.0903 µg/mL

query: Reported IC50, neutralization of MERS-S pseudovirus infectivity (H2L2), binder 5.2b7 (antibody, V domains shown) VH: QVQLVESGGGVVQPGRSLRLSCAASGFTFSSDGMHWVRQAPGKGLEWVAVIWFDGSNKYYADSVKGRFTISRDNSKNTMYLQMNSLRAEDTAVYYCTRDRGITMGRGRYYYYYGMDVWGQGTTVTVSS VL: EIVMTQSPATLSVSPGERATLSCRASQSVGSNLAWYQQKPGQAPRLLIYGASTRATGIPARFSGSGSGTEFTLTISSLQSEDFAVYYCQQYNNWPLTFGGGTKVEMKR : ____
result: ~0.00081 µg/mL

Let's switch to this binder now.
query: Which IC50, neutralization of MERS-S pseudovirus infectivity (H2L2) value belongs to 1.2g5 (antibody, V domains shown) VH: QVQLVQSGAEVKKPGSSVKVSCKASGGTFSTYAISWVRQAPGQGLEWMGGIIPIFGTANYAQKFQGRVTIIADKSTNTAYMDLSSLRSEDTAVYYCAREGNLGYDVVTGYSYFVYWGQGTLVTVSS VL: EIVLTQSPGTLSLSPGERATLSCRASQSVSSSYLAWYQQKPDQVPRLLIYGTSSRATGIPDRFSGSGSGTDFTLTISRLEPEDFAVYYCQQYGRSLTFGGGTKVEIKR ?
result: ~0.00062 µg/mL
